Biological target: T1, TFB2M-Δ3 (human, UniProt Q9H5Q4 20-393)
T1 sequence: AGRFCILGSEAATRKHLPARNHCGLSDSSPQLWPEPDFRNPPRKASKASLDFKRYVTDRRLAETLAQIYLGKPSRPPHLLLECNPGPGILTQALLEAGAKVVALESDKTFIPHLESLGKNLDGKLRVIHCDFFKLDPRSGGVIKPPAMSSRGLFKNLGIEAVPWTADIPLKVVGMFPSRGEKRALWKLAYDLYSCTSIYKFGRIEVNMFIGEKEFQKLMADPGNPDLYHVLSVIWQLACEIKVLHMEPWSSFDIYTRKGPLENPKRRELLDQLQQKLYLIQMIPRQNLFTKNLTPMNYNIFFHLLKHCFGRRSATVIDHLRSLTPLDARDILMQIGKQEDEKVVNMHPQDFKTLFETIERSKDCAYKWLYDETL
Assay: fluorescence anisotropy
Assay Endpoint: Kd (nM)

[[record]]
binder = "TACCGCCAAAAG (ssDNA) [LSP NT]"
assay_endpoint = "Kd"
readout_unit = "nM"
numeric_value = 92

